Experiment: chemical genetic growth profiling, strain panel (AID 1159580);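 note: tested at 20 µM; growth read once vehicle control cultures reached saturation at 30 °C; 1 = growth at the plate median or of vehicle wells; lower values mean less growth of the strain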
Conditions: S. cerevisiae deletion strains, growth OD, locus YJR043C, strain POL32, active compounds read low
Out of some 5,500 compounds screened, about 2,000 (36%) were called active. Another 18% or so got no clear call; they are omitted. Some of the results follow.

{"columns": ["MOLECULE", "normalized growth"],
 "data": [
  ["O=C(O)c1cc(=O)c(O)c2c(O)c(O)ccc2c1", "1.04 (inactive)"],
  ["COC(=O)c1cc(OC)c(OC)cc1NS(=O)(=O)c1ccc(C)cc1", "0.985 (inactive)"],
  ["CC(=O)c1ccc(-c2ccc(C(C)=O)cc2)cc1", "0.974 (inactive)"],
  ["CCCN(CCC)C(=O)C(CCC(=O)O)NC(=O)c1ccccc1 (stereo not given)", "0.985 (inactive)"],
  ["CO[C@@H]1C[C@@H](C[C@H]2CC[C@H](C)[C@H]([C@@H](C)C(=O)O)O2)O[C@]2(O[C@](C)([C@H]3CC[C@@](C)(C4O[C@@H](C5O[C@@](O)(CO)[C@H](C)C[C@@H]5C)C[C@@H]4C)O3)C[C@H]2C)[C@@H]1C (stereo not given in full)", "1.02 (inactive)"],
  ["O=C(CC(Nc1ccccc1)c1ccccc1)C1CC1 (stereo not given)", "0.996 (inactive)"],
  ["c1ccc2[nH]c(-c3cscn3)nc2c1", "0.964 (inactive)"],
  ["COc1ccc(-c2cc(C(F)F)nn2-c2ccc(S(N)(=O)=O)cc2)cc1F", "1.03 (inactive)"],
  ["CCC(=O)c1ccc(-c2ccccc2)cc1", "0.912 (active)"],
  ["C[C@@]12C(=O)OC(=O)[C@]1(C)C1CCC2O1", "0.862 (inactive)"]
]}

Each recorded value in this set is attributed to PubChem BioAssay AID1159580.
